Test: Inhibition of RSV Long fusion protein L138F mutant assessed as protection against virus induced cytopathic effect in infected human Hep2 cells after 5 days by CCK8 assay
RECORDED ENDPOINT: IC50 (nM)

STRUCTURE NOTATION | RECORDED ENDPOINT | UNIT SYMBOL | RESULT NUMBER
NCCNc1cc(N2CCCc3ccccc3C2)nc2ccccc12 | IC50 | nM | 2300
